Target: T1, TNFR2-His (Sino Biological, 10417-H08H, NP_001057.1 Met1-Asp257, with multi-histidine tag expressed on … (human, UniProt P20333 23-257))
T1 construct: range 1-257; Bought protein; also called recombinant human TNFR2 protein; TNFR2-His antigen; not shown: C-terminal multi-histidine tag
T1 sequence (looked up): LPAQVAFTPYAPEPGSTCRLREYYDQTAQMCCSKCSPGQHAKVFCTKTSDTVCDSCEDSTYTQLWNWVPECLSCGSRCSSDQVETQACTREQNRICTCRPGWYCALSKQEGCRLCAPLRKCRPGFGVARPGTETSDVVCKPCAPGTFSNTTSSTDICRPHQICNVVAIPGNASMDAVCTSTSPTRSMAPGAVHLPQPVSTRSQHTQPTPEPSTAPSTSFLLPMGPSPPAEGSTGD
Experiment: BLI, antibody captured on AHC probe, TNFR2 in solution
Answer each item with its documented Kd.
Lab book: enter the figure in nM, no units written.

I am curious: what Kd value has been reported for human-mouse chimeric TNFR2 monoclonal antibody 29A1-hFc (antibody, V domains shown, Mouse V regions of clone 29A1 with human constant regions) VH: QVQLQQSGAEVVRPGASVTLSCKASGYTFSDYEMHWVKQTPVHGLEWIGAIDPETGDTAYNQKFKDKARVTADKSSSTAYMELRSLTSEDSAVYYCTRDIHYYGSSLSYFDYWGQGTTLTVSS VL: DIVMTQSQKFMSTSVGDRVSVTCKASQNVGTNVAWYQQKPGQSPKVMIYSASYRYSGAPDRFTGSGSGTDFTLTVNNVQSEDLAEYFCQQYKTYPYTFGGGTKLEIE ? 16.3

I am curious: what Kd value has been reported for human-mouse chimeric TNFR2 monoclonal antibody 27F6-hFc (antibody, V domains shown, Mouse V regions of clone 27F6 with human constant regions) VH: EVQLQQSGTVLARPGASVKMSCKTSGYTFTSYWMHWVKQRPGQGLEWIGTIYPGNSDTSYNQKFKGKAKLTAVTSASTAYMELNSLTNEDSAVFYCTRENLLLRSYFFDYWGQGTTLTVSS VL: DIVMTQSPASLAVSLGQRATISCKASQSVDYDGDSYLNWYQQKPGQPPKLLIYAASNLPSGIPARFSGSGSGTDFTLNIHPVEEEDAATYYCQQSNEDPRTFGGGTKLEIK ? 9.38
